# binding affinity ratio (IC50 of standard peptide / IC50 of test peptide) per entry
target: HLA-A*0301 (human)
Lab note: write the figure by itself, no unit.

Reference set, count: 4
RGRRQPIPK (modifications not checked) [HCV peptide … (polyprotein position 59)] | 0.012
SSDLYLVTR (modifications not checked) | 0.0003
SSDLYLVTRH (modifications not checked) | 0.0003
RLLAPITAY (modifications not checked) [HCV peptide … (polyprotein position 1029)] | 2.7

Given item RVLEDGVNY (modifications not checked) [HCV peptide … (polyprotein position 156)] , the value recorded as its binding affinity ratio (IC50 of standard peptide / IC50 of test peptide) is 0.012

Kindly note the recorded binding affinity ratio (IC50 of standard peptide / IC50 of test peptide) for RVCEKMALY (modifications not checked) [HCV peptide … (polyprotein position 2621)] , which is 0.18
